- Tested on: Vero E6
- assay-remarks: cell viability relative to DMSO; higher = less toxic
- test-parameters: 72 h; 1 nM
measure-name: cell viability (%)
# unit: % | format: bare number

Consider the worked cases shown below.
compound | numeric-value
COc1cc(C(=O)NCCCCCC(=O)O)cc(OC)c1OC [capobenic-acid] | 103
CC(C)N1CCN(c2ccc(C(=O)c3c(-c4ccc(O)cc4)sc4cc(O)ccc34)cc2)CC1 [Y-134] | 101

// query Supply reported cell viability belonging to this compound: CC(=O)c1ccc2c(c1)[C@H](NC(=O)c1ccc(F)c(Cl)c1)[C@H](O)C(C)(C)O2 [tonabersat]
// result 109

// query Quote cell viability reported for CCOc1cn(-c2ccc(F)cc2C)nc1C(=O)Nc1ccc(Oc2ccnc3cc(OC)c(OC)cc23)c(F)c1 [LDC1267] please.
// result 105

// query Provide measured cell viability value, entry: O=C(Oc1ccccc1C(=O)O)c1ccccc1O [sasapyrine]
// result 110

---

Recorded cell viability values for a group of molecules are listed next.
- System: U2OS
- assay-remarks: cell viability relative to DMSO; higher = less toxic
- test-parameters: 72 h; 100 nM
Give the number; % is assumed, so skip it.

Illustrative cases are given below, each with its answer.
molecule | target-or-test-system | cell viability, %
Nc1ncnc2c1C(=O)N(c1ccc([C@H]3CC[C@H](CC(=O)O)CC3)cc1)CCO2 | U2OS | 109
C[C@@H]1CN(CCCn2c3ccccc3c3ccccc32)C[C@H](C)N1 [rimcazole] | U2OS | 105
COC(=O)CCC(=O)CN [methyl-aminolevulinate] | U2OS | 96.8
CCN(CC)C(C)C(=O)c1ccccc1 (stereo not given) [amfepramone] | U2OS | 98.1
CC(=O)c1ccc2c(c1)[C@H](NC(=O)c1ccc(F)c(Cl)c1)[C@H](O)C(C)(C)O2 [tonabersat] | U2OS | 92.1

Pending molecule:
// query Look up cell viability of COc1ccc(C2CC(c3ccccc3)=NN2c2ccc(S(N)(=O)=O)cc2)cc1 (stereo not given) [ML141] and report it.
// result 93.3

---

# cell viability per record follows
- Test system: Calu-3
- assay-remarks: cell viability relative to DMSO; higher = less toxic
- test-parameters: 72 h; 10 nM
Could you give the number and then its unit, please?

molecule | cell viability
N#CC[C@@H](C1CCCC1)n1cc(-c2ncnc3[nH]ccc23)cn1 [ruxolitinib-(S)] | 97.1%
CC(C)CCNc1ncccc1C(=O)N1CCN(Cc2ccccc2)CC1 [NSI-189] | 108%
O=P(O)(O)C(O)(Cc1cccnc1)P(=O)(O)O [risedronate] | 98.7%
CC1(C)OC[C@H](NC(=O)Nc2ccc(Br)cc2Br)[C@H](c2ccccc2)O1 | 89.6%

// query Give me measured cell viability, please, for this molecule: O=Cc1cn(Cc2ccc(Cl)cc2)c2ccccc12 [oncrasin-1]
// result 100%

---

- Tested on: HepG2
- assay-remarks: cell viability relative to DMSO; higher = less toxic
- test-parameters: 72 h; 100 nM
cell viability: recorded values
I only need the number, in %, no unit after it.

molecule | measure-name | numeric-value
CN1C(=O)COc2c(C(=O)NC3CN4CCC3CC4)cc(Cl)cc21 (centres undefined) [azasetron] | cell viability | 87.9

// query Give recorded cell viability. CCCC(CCC)C(=O)NCC(N)=O [valrocemide]
// result 95.6

// query Please give measured cell viability of the following entry: CCN(CCO)CCCC(C)Nc1ccnc2cc(Cl)ccc12 (centres undefined) [hydroxychloroquine]
// result 96.8

// query Tell me cell viability reported for `FC(F)(F)c1cc(NC(=S)Nc2ccc(Br)cc2-c2nnn[nH]2)cc(C(F)(F)F)c1`
// result 98.7

// query # return recorded cell viability for input COCc1nc2c([nH]1)c(=O)n(C)c(=O)n2CC(C)C [MMPX]
// result 101

// query Check the records and state cell viability for CNCc1cc(-c2ccccc2F)n(S(=O)(=O)c2cccnc2)c1 [vonoprazan]
// result 100

// query Return reported cell viability. Input molecule: CC(COc1ccccc1Cc1ccccc1)N1CCCCC1 (centres undefined) [benproperine]
// result 96.5

// query Name the recorded cell viability of the item COCCCOc1ccnc(C[S+]([O-])c2nc3ccccc3[nH]2)c1C (centres undefined) [rabeprazole] in your answer.
// result 91.9

// query Recall and state the measured cell viability for O=S1(=O)OC(c2ccc(O)cc2)(c2ccc(O)cc2)c2ccccc21 [phenolsulfonphthalein] .
// result 99.3

---

- Tested on: Calu-3
- assay-remarks: cell viability relative to DMSO; higher = less toxic
- test-parameters: 72 h; 100 nM
In this section we review reported cell viability values for a set of molecules.
Only the number, expressed in %, is required.

molecule | target-or-test-system | numeric-value
CCNC(=O)[C@@H]1CCCN1C(=O)[C@H](CCCNC(=N)N)NC(=O)[C@H](CC(C)C)NC(=O)[C@@H](CC(C)C)NC(=O)[C@H](Cc1ccc(O)cc1)NC(=O)[C@H](CO)NC(=O)[C@H](Cc1c[nH]c2ccccc12)NC(=O)[C@H](Cc1c[nH]cn1)NC(=O)[C@@H]1CCC(=O)N1 [leuprolide] | Calu-3 | 95
COCc1c(-c2ccc(NC(=O)Nc3cc(C(F)(F)F)ccc3F)c(F)c2)c2c(N)ncnn2c1CN1CCOCC1 | Calu-3 | 93.9
CN1C(=O)N(c2cc(Cl)cc(Cl)c2)C(=O)[C@@]1(C)Cc1ccc(Br)cc1 | Calu-3 | 91.1
Cc1cccc(-c2nn3c(c2-c2ccnc4ccc(C(N)=O)cc24)CCC3)n1 | Calu-3 | 91.4
CC(C)(Oc1ccc(CCNC(=O)c2ccc(Cl)cc2)cc1)C(=O)O [bezafibrate] | Calu-3 | 108

Consider the additional molecule presented here.
// query Consider the molecule `CC(C)(C)NC(=O)[C@@H]1C[C@@H]2CCCC[C@@H]2CN1C[C@@H](O)[C@H](Cc1ccccc1)NC(=O)[C@H](CC(N)=O)NC(=O)c1ccc2ccccc2n1` . State its measured cell viability.
// result 93.2

---

- Tested on: Caco-2
- assay-remarks: cell viability relative to DMSO; higher = less toxic
- test-parameters: 72 h; 100 nM
Measured cell viability, listed per entry.
I only need the number, in %, no unit after it.

compound | target-or-test-system | cell viability, %
CCN1CCN(C(=O)Cc2ccc(Nc3ncc(F)c(Nc4ccc(C(=O)Nc5ccccc5Cl)cc4)n3)cc2)CC1 [aurora-a-inhibitor-i] | Caco-2 | 95.5
O=C1NC(c2cccc([N+](=O)[O-])c2)=CCN1c1ccccc1O [icilin] | Caco-2 | 97.6

// query Determine from records and report cell viability for COC(=O)[C@@]12OC[C@]34[C@H]([C@@H](O)[C@@H]1O)[C@@]1(C)CC(=O)C(O)=C(C)[C@@H]1C[C@H]3OC(=O)[C@H](OC(=O)/C=C(\C)C(C)C)[C@@H]24 [bruceantin]
// result 37.7

---

- System: Caco-2
- assay-remarks: cell viability relative to DMSO; higher = less toxic
- test-parameters: 72 h; 100 nM
measure-name: cell viability (%)
I only need the number, in %, no unit after it.

Please review the entries below; each comes with its answer.
molecule | cell viability [%]
Cc1[nH]c(/C=C2\C(=O)Nc3ccc(F)cc32)c(C)c1C(=O)NCCN1CCCC1 [toceranib] | 98.8
C[C@]12CC[C@@H](O)C[C@H]1CC[C@@H]1[C@@H]2CC[C@]2(C)C(=O)CC[C@@H]12 [3-alpha-hydroxy-5-beta-androstan-17-one] | 97.6
O=C(NC(Cc1cc(=O)[nH]c2ccccc12)C(=O)O)c1ccc(Cl)cc1 (centres undefined) [rebamipide] | 89.9
CC(C)(Cc1ccc2ccccc2c1)NC[C@@H](O)COc1cccc(Cl)c1C#N [NPS-2143] | 103
COc1cc2c(cc1OC)[C@H](C)NCC2 [Isoquinoline,-6,7-dimethoxy-1-methyl-1,2,3,4-tetrahydro,] | 99.4
N#Cc1cc(-c2n[nH]c(-c3ccncc3)n2)ccn1 [topiroxostat] | 89.6

// query Please report the measured cell viability for CCN(CC)CCNC(=O)COc1ccc(OC)cc1 [mefexamide]
// result 81.7

// query Specify reported cell viability for the molecule shown: CC(C)OC(=O)[C@H](C)N[P@](=O)(CO[C@H](C)Cn1cnc2c(N)ncnc21)Oc1ccccc1 [tenofovir-alafenamide]
// result 98.2

// query Give the reported cell viability for this molecule. `c1cc(-c2cnn3cc(-c4ccc(N5CCNCC5)cc4)cnc23)c2cccnc2c1`
// result 102

// query In one line, give reported cell viability of the entry CC(C)NC(=N)NC(=N)Nc1ccc(Cl)cc1 [proguanil] .
// result 108

// query Quick one: give measured cell viability for CC(C)(C)NCC(O)c1cc(Br)no1 (centres undefined) [broxaterol]
// result 93

// query Given the molecule CCCCCCCCCCCCCCCC[N+](C)(C)CCN(Cc1ccc(OC)cc1)c1ncccn1 [thonzonium] , write its reported cell viability.
// result 110

// query Recall and state the measured cell viability for `CN1CCN(c2ccc(Nc3ncc4cc(C#N)c(=O)n(C5CCCC5)c4n3)cc2)CC1` .
// result 101
